Source of measurements: PubChem BioAssay (NCATS)

# Measurement Protocol: qHTS for differential inhibitors of proliferation of Plasmodium falciparum line Dd2 (AID 1882); also: nearly all actives have a fitted effect of over 65% in size
# Cond: Plasmodium falciparum Dd2 proliferation inhibition; series mostly up to 28.7 µM
Records with an inconclusive call do not appear. Active and inactive are the calls of the source. Calls follow the shape of the dose curve; as a rule, active = well fitted inhibition curve with a large enough effect; inconclusive = small, poorly fitted or top-dose-only effect; inactive = flat fitted curve, though single readings scatter.
Possible outcomes: active, inactive

# Compound, Class Name
rows = [
    ("NCCCNCCSP(=O)(O)O", "inactive"),
    ("CC(C)NCC(O)c1cc(O)cc(O)c1 (stereo unspecified)", "inactive"),
    ("CSc1ccc(C(=O)c2[nH]c(=O)[nH]c2C)cc1", "inactive"),
    ("C#CCN(C)CCCOc1ccc(Cl)cc1Cl", "inactive"),
    ("CCO/C([O-])=N/c1c[n+](N2CCOCC2)no1", "inactive"),
    ("Cc1ccc(=O)n(-c2ccccc2)c1", "inactive"),
    ("Nc1c2c(nc3ccccc13)CCCC2O (stereo unspecified)", "inactive"),
    ("CN(C)CCCN1c2ccccc2Sc2ccc(C(F)(F)F)cc21", "active"),
    ("c1cc(CN2CCCCC2)cc(OCCCNc2nc3ccccc3s2)c1", "active"),
    ("C[n+]1cc2c3c(ccc2c2ccc4cc5c(cc4c21)OCO5)OCO3", "active"),
    ("CCN1CCC[C@H]1CNC(=O)c1c(O)c(Cl)cc(Cl)c1OC", "inactive"),
    ("CC(C(=O)O)c1ccc(CC2CCCC2=O)cc1 (stereo unspecified)", "inactive"),
    ("CCN(Cc1ccncc1)C(=O)C(CO)c1ccccc1 (stereo unspecified)", "inactive"),
    ("CN=C(NC#N)NCCSCc1nc[nH]c1C", "inactive"),
    ("Cc1ccc(S(=O)(=O)NC(=O)NN2CCCCCC2)cc1", "inactive"),
    ("C[N+](C)(C)CCOC(=O)CCC(=O)OCC[N+](C)(C)C", "inactive"),
    ("NC(Cc1ccc(Cl)cc1)C(=O)O (stereo unspecified)", "inactive"),
    ("CC(=O)[C@]1(O)Cc2c(O)c3c(c(O)c2[C@@H](O[C@H]2C[C@H](N)[C@H](O)[C@H](C)O2)C1)C(=O)c1ccccc1C3=O", "active"),
    ("NC(=O)c1ncn([C@@H]2O[C@H](CO)[C@@H](O)[C@H]2O)c1O", "inactive"),
    ("COc1cc2c(cc1OC)-c1cc(=Nc3c(C)cc(C)cc3C)n(C)c(=O)n1CC2", "active"),
    ("CCn1cc(C(=O)O)c(=O)c2cc3c(cc21)OCO3", "inactive"),
    ("CCCN(CCC)C(=O)C(CCC(=O)O)NC(=O)c1ccccc1 (stereo unspecified)", "inactive"),
    ("FC(F)(F)c1ccccc1-n1ccnc1", "inactive"),
    ("C[N+](C)(C)CCOC(N)=O", "inactive"),
    ("CCN(CC)CCNC(=O)c1cc(S(C)(=O)=O)ccc1OC", "inactive"),
    ("CN(C)CCOC(=O)COc1ccc(Cl)cc1", "inactive"),
]
